Overview of reported inhibition across a group of molecules:
Biological target: Rho-associated protein kinase 2 (Homo sapiens);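 also: values are averaged inhibition readings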
Details: at 0.1 µM
assay metric: inhibition (%)

In [3]: df
Out[3]:
                               smiles_entry  assay_metric  measured_value
0  COc1ccc(-c2nn3ncccc3c2-c2ccnc(Nc3ccc4c(c3)OCCO4)n2)cc1    inhibition           -0.09
1  O=S(=O)(CCNCc1ccc(-c2ccc3ncnc(Nc4ccc(OCc5cccc(F)c5)c(Cl)c4)c3c2)o1)c1ccccc1    inhibition            3.77
2  CN1CCC(n2cnc(-c3ccc(F)cc3)c2-c2ccnc(N)n2)CC1    inhibition            0.69
3         N#Cc1c(NC(=O)CN2CCOCC2)sc2c1CCCC2    inhibition            5.37
4  COC(=O)Nc1nc2ccc(S(=O)(=O)c3ccc(NC(=O)Nc4cc(C(F)(F)F)ccc4F)cc3)cc2[nH]1    inhibition            1.37
5  CC(=O)Nc1cccc(C#Cc2cncnc2Nc2ccc(OCc3cccc(F)c3)c(Cl)c2)c1    inhibition            0.44
6  CCN(CC)S(=O)(=O)c1ccc(OC)c(Nc2ncc(-c3ccccc3)o2)c1    inhibition            1.64

###

Molecular target: NUAK family SNF1-like kinase 1 (Homo sapiens) (UniProt O60285)
Sequence (whole entry): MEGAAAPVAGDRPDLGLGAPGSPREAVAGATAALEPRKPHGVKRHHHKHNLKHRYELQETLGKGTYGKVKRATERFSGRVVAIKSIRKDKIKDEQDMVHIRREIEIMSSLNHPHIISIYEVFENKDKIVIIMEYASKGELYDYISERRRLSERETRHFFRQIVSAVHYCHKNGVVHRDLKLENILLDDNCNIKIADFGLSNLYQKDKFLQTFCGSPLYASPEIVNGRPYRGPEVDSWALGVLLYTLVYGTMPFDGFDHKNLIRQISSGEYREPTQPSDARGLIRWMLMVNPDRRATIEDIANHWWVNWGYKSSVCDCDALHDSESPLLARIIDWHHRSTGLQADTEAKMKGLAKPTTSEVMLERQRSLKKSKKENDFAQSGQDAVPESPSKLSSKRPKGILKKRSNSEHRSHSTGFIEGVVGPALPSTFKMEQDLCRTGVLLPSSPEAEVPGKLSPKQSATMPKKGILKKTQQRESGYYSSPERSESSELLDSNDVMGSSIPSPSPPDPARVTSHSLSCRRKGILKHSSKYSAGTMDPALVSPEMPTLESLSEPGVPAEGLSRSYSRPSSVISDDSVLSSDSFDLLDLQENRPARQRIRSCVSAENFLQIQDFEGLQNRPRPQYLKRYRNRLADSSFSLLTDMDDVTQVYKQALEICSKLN
Details: at 1 µM
Description: GSK_PKIS: ARK5 mean inhibition at 1 uM [Nanosyn]
assay metric: inhibition (%)

>>> print(df.to_string())
                                    compound  assay_metric  readout_unit  measured_value
 0  CS(=O)(=O)CCNCc1coc(-c2ccc3ncnc(Nc4ccc(OCc5ccccc5)cc4)c3c2)c1    inhibition             %            3.61
 1             COc1ccc(-c2cc3c(N)ncnc3o2)cc1    inhibition             %            2.41
 2  COc1ccc(-c2nn3ncccc3c2-c2ccnc(Nc3ccc4c(c3)OCCO4)n2)cc1    inhibition             %            2.67
 3  c1ccc(COc2ccc(Nc3ncnc4ccc(-c5ccco5)cc34)cc2)cc1    inhibition             %           -1.67
 4  CC(C)COC(=O)c1ccc2c(c1)/C(=C/Nc1ccc(S(N)(=O)=O)cc1)C(=O)N2    inhibition             %            75.6
 5  COc1cc2ncn(-c3cc(OCc4ccccc4C(F)(F)F)c(C(=O)N(C)C)s3)c2cc1OC    inhibition             %            14.8
 6  COc1ccc(-c2cc(-c3c[nH]nc3-c3ccccn3)ccn2)cc1    inhibition             %            2.48
 7  Cc1ccc2c(-c3ccnc(Nc4ccccc4)n3)c(-c3ccc(F)cc3)nn2n1    inhibition             %            6.31
 8  CC(C)(CO)CNC(=O)c1ccc2c(c1)/C(=N/Nc1ccc(S(N)(=O)=O)cc1)C(=O)N2    inhibition             %            58.6
 9  CC1=C(C(=O)Nc2cc(Cl)c3[nH]ncc3c2)C(c2ccc(C(F)(F)F)cc2)CC(=O)N1 (configuration not stated)    inhibition             %             5.4
10                CCn1c(-c2nonc2N)nc2ccccc21    inhibition             %            10.1
11  NS(=O)(=O)c1ccc(N/N=C2\C(=O)Nc3ccc4ncccc4c32)cc1    inhibition             %            85.4
12          CCc1nn2ncccc2c1-c1ccnc(NC2CC2)n1    inhibition             %            1.14
13  CCN1CCC(CC(=O)Nc2n[nH]c3nnc(-c4cccc(F)c4F)cc23)CC1    inhibition             %            1.56
14  COc1ccc(-c2oc3ncnc(N)c3c2-c2ccc(NC(=O)Nc3cc(C(F)(F)F)ccc3F)cc2)cc1    inhibition             %            9.26
15  COc1cc(Nc2nccc(Nc3ccc4c(C)n[nH]c4c3)n2)cc(OC)c1OC    inhibition             %            35.5
16  c1ccc(-c2nc3n(c2-c2ccc4c(c2)OCO4)CCC3)nc1    inhibition             %           -1.66
17  COC(=O)Nc1nc2ccc(S(=O)(=O)c3ccc(NC(=O)Nc4cc(C(F)(F)F)ccc4F)cc3)cc2[nH]1    inhibition             %            4.84
18  FC(F)(F)c1cccc(-c2nn3ncccc3c2-c2ccnc(Nc3ccc4c(c3)OCCO4)n2)c1    inhibition             %            5.87
19  CN1CCC(n2cnc(-c3ccc(F)cc3)c2-c2ccnc(Nc3ccccc3)n2)CC1    inhibition             %            4.19
20       N#Cc1c(NC(=O)c2ccc(F)cc2)sc2c1CCCC2    inhibition             %            2.02
21  O=C(Nc1n[nH]c2cc(-c3ccc(F)cc3)ccc12)C1CC1    inhibition             %            2.52
22  COc1cc(N2CCN(C(C)C)CC2)ccc1Nc1nc(Nc2ccc(F)cc2C(N)=O)c2cc[nH]c2n1    inhibition             %              85
23  CCOc1ccc2c(-c3ccnc(Nc4cccc(C(F)(F)F)c4)n3)cnn2n1    inhibition             %            7.44
24   NS(=O)(=O)c1ccc(Nc2ncc(-c3ccccc3)o2)cc1    inhibition             %            37.2
25            Cc1cccc(Nc2ncc(-c3ccccc3)o2)c1    inhibition             %            19.2
26        Fc1ccc(-c2nn3ccccc3c2-c2ccncc2)cc1    inhibition             %            1.09
27  Nc1ncc(-c2cccc(S(N)(=O)=O)c2)c2scc(-c3ccc(F)c(Cl)c3)c12    inhibition             %            2.44
28  CNC(=O)c1cccc(C#Cc2cncnc2Nc2ccc(OCc3cccc(F)c3)c(Cl)c2)c1    inhibition             %            8.68
29  CCn1c(-c2nonc2N)nc2cnc(Oc3cccc(NC(=O)c4ccc(N(C)C)cc4)c3)cc21    inhibition             %            18.7
30  CN(C)CCOc1ccc(-c2nc(-c3ccncc3)c(-c3ccc4c(c3)CC/C4=N\O)[nH]2)cc1    inhibition             %            8.79
31  CCn1c(-c2nonc2N)nc2c(C#CC(C)(C)O)ncc(OC3CCNCC3)c21    inhibition             %            42.9
32  [O-][S+]1CCN(Cc2ccc(-c3ccc4ncnc(Nc5ccc(OCc6cccc(F)c6)c(Cl)c5)c4c3)o2)CC1    inhibition             %             3.1
33  O=S(=O)(CCNCc1ccc(-c2ccc3ncnc(Nc4ccc(OCc5cccc(F)c5)c(Cl)c4)c3c2)o1)c1ccccc1    inhibition             %            2.65
34  COc1ccc(CNC(=O)c2ccc(-c3cc(-c4nnc(C)o4)ccc3C)cc2)cc1    inhibition             %            5.45
35  O=C(O[C@H]1CN[C@H](C#Cc2cc3ncnc(Nc4ccc(Cc5ccccc5)cc4)c3s2)C1)N1CCOCC1    inhibition             %           -2.64
36         N#Cc1c(NC(=O)CN2CCOCC2)sc2c1CCCC2    inhibition             %            4.86

The origin of these recorded values is ChEMBL document CHEMBL1961873.
